The reported measurements were obtained from patent USRE48335E1.

Positions of bridges follow the written chain, without caps; N, C: chain ends. Non-standard residues stand in square brackets, D forms with d. Residues, ends and D or L forms follow the SMILES beside them. *: point of attachment. X38 = O=C(c1ccc(Cl)cc1C(F)(F)F)*; Decanoyl = CCCCCCCCCC(=O)*; Dab = NCC[C@H](N)C(=O)O; Abu = CC[C@H](N)C(=O)O; Dap = NC[C@H](N)C(=O)O
Below are Minimum inhibitory concentration, Ab A ATCC 17978 values measured for Acinetobacter baumannii.
ASSAY_READOUT: Minimum inhibitory concentration, Ab A ATCC 17978 (µg/mL)

CC[C@@H]1NC(=O)[C@@H](CC(C)C)NC(=O)[C@H](CCN)NC(=O)[C@@H](NC(=O)[C@H](CN)NC(=O)[C@@H](NC(=O)[C@H](CCN)NC(=O)c2ccc(Cl)cc2C(F)(F)F)[C@@H](C)O)CCNC(=O)[C@H]([C@@H](C)O)NC(=O)[C@H](CCN)NC(=O)[C@H](CCN)NC1=O [Compound 136] (X38-[Dab]T[Dap][Dab][Dab][dL][Abu][Dab][Dab]T; lactam 4-C) ... 0.5
CCCCCCCCCC(=O)N[C@@H](CCN)C(=O)N[C@H](C(=O)N[C@H](CO)C(=O)N[C@H]1CCNC(=O)[C@H]([C@@H](C)O)NC(=O)[C@H](CCN)NC(=O)[C@H](CCN)NC(=O)[C@H]([C@@H](C)O)NC(=O)[C@@H](CC(C)C)NC(=O)[C@H](CCN)NC1=O)[C@@H](C)O [Compound 9] (Decanoyl-[Dab]T[dS][Dab][Dab][dL]T[Dab][Dab]T; lactam 4-C) ... 1

----------
Form: system (Enterobacter cloacae), quantity (Minimum inhibitory concentration, Ec FADDI-EC003), values below.
Positions of bridges follow the written chain, without caps; N, C: chain ends. Non-standard residues stand in square brackets, D forms with d. Residues, ends and D or L forms follow the SMILES beside them. *: point of attachment. X18 = O=C(c1ccc(Cl)c(C(F)(F)F)c1)*; Dab = NCC[C@H](N)C(=O)O; Abu = CC[C@H](N)C(=O)O; Dap = NC[C@H](N)C(=O)O; Hexanoyl = CCCCCC(=O)*
ASSAY_READOUT: Minimum inhibitory concentration, Ec FADDI-EC003

CC[C@@H]1NC(=O)[C@@H](CC(C)C)NC(=O)[C@H](CCN)NC(=O)[C@@H](NC(=O)[C@H](CN)NC(=O)[C@@H](NC(=O)[C@H](CCN)NC(=O)c2ccc(Cl)c(C(F)(F)F)c2)[C@@H](C)O)CCNC(=O)[C@H]([C@@H](C)O)NC(=O)[C@H](CCN)NC(=O)[C@H](CCN)NC1=O [Compound 112] (X18-[Dab]T[Dap][Dab][Dab][dL][Abu][Dab][Dab]T; lactam 4-C) ... 0.25 µg/mL
CCCCCC(=O)N[C@@H](CCN)C(=O)N[C@H](C(=O)N[C@H](CO)C(=O)N[C@H]1CCNC(=O)[C@H]([C@@H](C)O)NC(=O)[C@H](CCN)NC(=O)[C@H](CCN)NC(=O)[C@H]([C@@H](C)O)NC(=O)[C@@H](CC(C)C)NC(=O)[C@H](CCN)NC1=O)[C@@H](C)O [Compound 8] (Hexanoyl-[Dab]T[dS][Dab][Dab][dL]T[Dab][Dab]T; lactam 4-C) ... 0.5 µg/mL
